measuredOn: mouse DLL3 on CHO-K1-mDLL3 cells (mouse) (UniProt O88516)
Sequence (O88516 other isoform, or with tags, fused parts or gaps limits assumed): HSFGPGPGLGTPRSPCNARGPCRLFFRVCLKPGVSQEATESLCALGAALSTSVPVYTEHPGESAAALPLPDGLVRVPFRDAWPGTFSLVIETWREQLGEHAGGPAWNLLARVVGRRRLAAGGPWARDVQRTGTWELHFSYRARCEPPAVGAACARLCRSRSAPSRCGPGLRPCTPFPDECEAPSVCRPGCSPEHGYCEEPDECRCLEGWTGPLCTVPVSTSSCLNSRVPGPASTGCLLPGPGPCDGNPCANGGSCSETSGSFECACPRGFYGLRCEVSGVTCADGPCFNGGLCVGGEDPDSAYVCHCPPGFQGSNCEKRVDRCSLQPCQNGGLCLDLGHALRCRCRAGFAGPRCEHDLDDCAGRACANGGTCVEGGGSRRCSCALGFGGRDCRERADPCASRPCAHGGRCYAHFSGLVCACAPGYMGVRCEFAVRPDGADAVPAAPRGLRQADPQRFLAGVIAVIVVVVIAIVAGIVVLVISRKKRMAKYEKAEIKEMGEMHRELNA
assayText: FACS, CHO-K1-mDLL3 cells, 0.032 nM antibody
measuredAttribute: MFI (MFI)

binder: Hab015VL4VH1a-hFc (scFv, part only; not given: scFv linker and human IgG1 Fc, V domains shown, not shown: another chain or arm of the molecule; a dimerising Fc or GST; small tags and cut ends) VL: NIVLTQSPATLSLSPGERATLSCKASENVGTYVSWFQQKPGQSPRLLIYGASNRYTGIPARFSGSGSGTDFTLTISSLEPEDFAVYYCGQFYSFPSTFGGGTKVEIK VH: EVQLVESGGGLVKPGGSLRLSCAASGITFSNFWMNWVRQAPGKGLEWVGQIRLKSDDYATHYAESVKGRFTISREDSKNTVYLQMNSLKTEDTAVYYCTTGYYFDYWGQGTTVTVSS
measuredAttribute: MFI
unitAbbrev: MFI
reportedMeasurement: 172

binder: Hab009VL1aVH1-hFc (scFv, part only; not given: scFv linker and human IgG1 Fc, V domains shown, not shown: another chain or arm of the molecule; a dimerising Fc or GST; small tags and cut ends) VL: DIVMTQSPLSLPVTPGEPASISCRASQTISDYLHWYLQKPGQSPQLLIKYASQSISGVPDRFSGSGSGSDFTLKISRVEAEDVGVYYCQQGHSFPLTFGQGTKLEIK VH: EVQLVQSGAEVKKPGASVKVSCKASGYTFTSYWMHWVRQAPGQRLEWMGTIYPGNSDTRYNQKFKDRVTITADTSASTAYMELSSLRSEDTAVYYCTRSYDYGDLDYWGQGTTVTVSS
measuredAttribute: MFI
unitAbbrev: MFI
reportedMeasurement: 166

binder: Hab015VL4VH5a-hFc (scFv, part only; not given: VL-VH linker and human IgG1 Fc, V domains shown, not shown: another chain or arm of the molecule; a dimerising Fc or GST; small tags and cut ends) VL: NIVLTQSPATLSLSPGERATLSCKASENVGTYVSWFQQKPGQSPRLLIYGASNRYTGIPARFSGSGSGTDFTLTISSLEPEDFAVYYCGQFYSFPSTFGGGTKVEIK VH: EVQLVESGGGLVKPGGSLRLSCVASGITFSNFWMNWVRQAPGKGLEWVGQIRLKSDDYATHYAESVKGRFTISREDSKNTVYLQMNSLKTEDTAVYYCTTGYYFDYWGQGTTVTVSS
measuredAttribute: MFI
unitAbbrev: MFI
reportedMeasurement: 170

binder: Hab015VL4VH6a-hFc (scFv, part only; not given: scFv linker and human IgG1 Fc, V domains shown, not shown: another chain or arm of the molecule; a dimerising Fc or GST; small tags and cut ends) VL: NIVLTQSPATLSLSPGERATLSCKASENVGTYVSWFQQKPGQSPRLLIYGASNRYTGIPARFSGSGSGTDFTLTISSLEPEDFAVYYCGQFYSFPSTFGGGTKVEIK VH: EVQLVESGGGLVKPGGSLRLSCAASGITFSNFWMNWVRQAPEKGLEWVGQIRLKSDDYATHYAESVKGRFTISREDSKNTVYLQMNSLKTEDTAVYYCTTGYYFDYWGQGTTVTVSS
measuredAttribute: MFI
unitAbbrev: MFI
reportedMeasurement: 170

binder: Hab015VL5VH6a-hFc (scFv, part only; not given: scFv linker and human IgG1 Fc, V domains shown, not shown: another chain or arm of the molecule; a dimerising Fc or GST; small tags and cut ends) VL: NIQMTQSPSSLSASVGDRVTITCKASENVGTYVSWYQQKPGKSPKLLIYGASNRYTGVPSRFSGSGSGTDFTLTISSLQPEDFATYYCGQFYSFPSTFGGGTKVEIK VH: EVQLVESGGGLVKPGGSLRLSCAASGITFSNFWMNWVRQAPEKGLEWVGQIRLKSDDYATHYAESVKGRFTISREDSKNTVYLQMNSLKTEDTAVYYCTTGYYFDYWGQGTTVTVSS
measuredAttribute: MFI
unitAbbrev: MFI
reportedMeasurement: 185

binder: Hab015VL4VH1b-hFc (scFv, part only; not given: VL-VH linker and human IgG1 Fc, V domains shown, not shown: another chain or arm of the molecule; a dimerising Fc or GST; small tags and cut ends) VL: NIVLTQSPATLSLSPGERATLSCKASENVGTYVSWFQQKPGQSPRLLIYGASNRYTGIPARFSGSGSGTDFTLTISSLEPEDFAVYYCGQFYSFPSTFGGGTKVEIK VH: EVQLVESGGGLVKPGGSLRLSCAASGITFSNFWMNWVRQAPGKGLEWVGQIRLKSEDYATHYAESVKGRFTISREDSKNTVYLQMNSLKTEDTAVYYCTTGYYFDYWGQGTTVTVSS
measuredAttribute: MFI
unitAbbrev: MFI
reportedMeasurement: 172

binder: Hab014VL1VH2-hFc (scFv, part only; not given: VL-VH linker and human IgG1 Fc, V domains shown, not shown: another chain or arm of the molecule; a dimerising Fc or GST; small tags and cut ends) VL: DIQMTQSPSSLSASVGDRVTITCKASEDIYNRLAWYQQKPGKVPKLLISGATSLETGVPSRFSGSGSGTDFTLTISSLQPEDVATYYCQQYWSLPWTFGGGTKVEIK VH: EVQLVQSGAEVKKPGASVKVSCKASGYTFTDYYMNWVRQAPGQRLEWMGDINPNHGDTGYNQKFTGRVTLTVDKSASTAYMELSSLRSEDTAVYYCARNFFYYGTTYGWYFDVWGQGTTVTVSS
measuredAttribute: MFI
unitAbbrev: MFI
reportedMeasurement: 148

binder: Hab006VL1VH4-hFc (scFv, part only; not given: VL-VH linker and human IgG1 Fc, V domains shown, not shown: another chain or arm of the molecule; a dimerising Fc or GST; small tags and cut ends) VL: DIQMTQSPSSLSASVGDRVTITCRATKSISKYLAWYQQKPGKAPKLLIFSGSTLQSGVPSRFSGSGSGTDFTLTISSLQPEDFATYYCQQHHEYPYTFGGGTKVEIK VH: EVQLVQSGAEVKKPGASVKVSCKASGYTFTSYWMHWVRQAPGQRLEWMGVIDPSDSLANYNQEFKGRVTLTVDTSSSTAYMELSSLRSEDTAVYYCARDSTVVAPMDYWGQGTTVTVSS
measuredAttribute: MFI
unitAbbrev: MFI
reportedMeasurement: 246
